Exercise: state measured 50% hsMIC (μg/ml) Pae 27853 for each of the sequences provided.
test system: P. aeruginosa; assay: MIC in the presence of 50% human serum (hsMIC); assay type: cell-based, Pseudomonas aeruginosa; conditions: in the presence of 50% human serum
Note: unit µg/mL is implicit; provide only the numeric part.

API: value(readout= 50% hsMIC (μg/ml) Pae 27853, system= P. aeruginosa, query= GGGGRFKRFRKKFKKLFKKLSPVIPLLHLG [Peptide P295] ) 2

Give 50% hsMIC (μg/ml) Pae 27853 (P. aeruginosa) of the following sequence: GGGKRFKKFFKKLKNSVKKRAKKFFKKPRVIGVSIPF [Peptide P296] 1

Find 50% hsMIC (μg/ml) Pae 27853 (P. aeruginosa) for the entry GGGKFFRKLKKSVKKRAKEFFKKPRVIGVSIPF [Peptide P297] 8

---

Kindly state hsMIC/MIC for each of the entries shown.
test system: P. aeruginosa; assay: MIC in the presence of 50% human serum (hsMIC); type: cell-based, Pseudomonas aeruginosa; settings: Pae 27853; ratio of hsMIC to MIC

Param item = GGGKRFKKFFKKLKNSVKKRAKKFFKKPRVIGVSIPF [Peptide P296] ; retrieve measured hsMIC/MIC. 0.25

Which hsMIC/MIC is reported for this sequence? GGGGRFKRFRKKFKKLFKKLSPVIPLLHLG [Peptide P295] 0.5

Find the recorded hsMIC/MIC belonging to GGGLLGDFFRKSKEKIGKEFKRIVQRIKDFLRNLVPRTES [Peptide P265] and report it. >4

Value lookup for hsMIC/MIC; key = GGGKFFRKLKKSVKKRAKEFFKKPRVIGVSIPF [Peptide P297] 2
